# ASSAY PROCEDURE: total protein half-life in vivo (active degradation + dilution); higher = more stable protein
# MEASUREMENT SETUP: wild type E. coli NCM3722; growth: P-lim chemostat; doubling time 6 h
Respond with TRUE for total protein half-life in vivo values of 6 h and above, FALSE for values below.

>  <POLYMER SEQUENCE>
MSRPTIIINDLDAERIDILLEQPAYAGLPIADALNAELDRAQMCSPEEMPHDVVTMNSRVKFRNLSDGEVRVRTLVYPAKMTDSNTQLSVMAPVGAALLGLRVGDSIHWELPGGVATHLEVLELEYQPEAAGDYLL [P0AFW4]

>  <ASSIGNED CATEGORY>
FALSE

$$$$
>  <POLYMER SEQUENCE>
MSWQEKINAALDARRAADALRRRYPVAQGAGRWLVADDRQYLNFSSNDYLGLSHHPQIIRAWQQGAEQFGIGSGGSGHVSGYSVVHQALEEELAEWLGYSRALLFISGFAANQAVIAAMMAKEDRIAADRLSHASLLEAASLSPSQLRRFAHNDVTHLARLLASPCPGQQMVVTEGVFSMDGDSAPLAEIQQVTQQHNGWLMVDDAHGTGVIGEQGRGSCWLQKVKPELLVVTFGKGFGVSGAAVLCSSTVADYLLQFARHLIYSTSMPPAQAQALRASLAVIRSDEGDARREKLAALITRFRAGVQDLPFTLADSCSAIQPLIVGDNSRALQLAEKLRQQGCWVTAIRPPTVPAGTARLRLTLTAAHEMQDIDRLLEVLHGNG

>  <ASSIGNED CATEGORY>
FALSE

$$$$
>  <POLYMER SEQUENCE>
MKTLGEFIVEKQHEFSHATGELTALLSAIKLGAKIIHRDINKAGLVDILGASGAENVQGEVQQKLDLFANEKLKAALKARDIVAGIASEEEDEIVVFEGCEHAKYVVLMDPLDGSSNIDVNVSVGTIFSIYRRVTPVGTPVTEEDFLQPGNKQVAAGYVVYGSSTMLVYTTGCGVHAFTYDPSLGVFCLCQERMRFPEKGKTYSINEGNYIKFPNGVKKYIKFCQEEDKSTNRPYTSRYIGSLVADFHRNLLKGGIYLYPSTASHPDGKLRLLYECNPMAFLAEQAGGKASDGKERILDIIPETLHQRRSFFVGNDHMVEDVERFIREFPDA [P0A993]

>  <ASSIGNED CATEGORY>
FALSE

$$$$
>  <POLYMER SEQUENCE>
MTMYATLEEAIDAAREEFLADNPGIDAEDANVQQFNAQKYVLQDGDIMWQVEFFADEGEEGECLPMLSGEAAQSVFDGDYDEIEIRQEWQEENTLHEWDEGEFQLEPPLDTEEGRAAADEWDER

>  <ASSIGNED CATEGORY>
FALSE

$$$$
>  <POLYMER SEQUENCE>
MKRTKSIRHASFRKNWSARHLTPVALAVATVFMLAGCEKSDETVSLYQNADDCSAANPGKSAECTTAYNNALKEAERTAPKYATREDCVAEFGEGQCQQAPAQAGMAPENQAQAQQSSGSFWMPLMAGYMMGRLMGGGAGFAQQPLFSSKNPASPAYGKYTDATGKNYGAAQPGRTMTVPKTAMAPKPATTTTVTRGGFGESVAKQSTMQRSATGTSSRSMGG [P0ADT2]

>  <ASSIGNED CATEGORY>
FALSE

$$$$

Note: attention shifts to another entry.
(Q) Determine whether this sequence has total protein half-life in vivo no lower than 6 h: `MHLITQKALKDAAEKYPQHKTELVALGNTIAKGYFKKPESLKAVFPSLDNFKYLDKHYVFNVGGNELRVVAMVFFESQKCYIREVMTHKEYDFFTAVHRTKGKK`
(A) TRUE

* * *

# ASSAY PROCEDURE: total protein half-life in vivo (active degradation + dilution); higher = more stable protein
# MEASUREMENT SETUP: E. coli NCM3722 delta-hslV; growth: N-lim chemostat; doubling time 6 h
RECORDED METRIC: total protein half-life in vivo (h)
Report the value in h with no unit label.

(Q) Requested field: total protein half-life in vivo. Item: `MSKSLQKPTILNVETVARSRLFTVESVDLEFSNGVRRVYERMRPTNREAVMIVPIVDDHLILIREYAVGTESYELGFSKGLIDPGESVYEAANRELKEEVGFGANDLTFLKKLSMAPSYFSSKMNIVVAQDLYPESLEGDEPEPLPQVRWPLAHMMDLLEDPDFNEARNVSALFLVREWLKGQGRV`
(A) 3.56

(Q) Requested read-out: total protein half-life in vivo. Entry: `MQASQFSAQVLDWYDKYGRKTLPWQIDKTPYKVWLSEVMLQQTQVATVIPYFERFMARFPTVTDLANAPLDEVLHLWTGLGYYARARNLHKAAQQVATLHGGKFPETFEEVAALPGVGRSTAGAILSLSLGKHFPILDGNVKRVLARCYAVSGWPGKKEVENKLWSLSEQVTPAVGVERFNQAMMDLGAMICTRSKPKCSLCPLQNGCIAAANNSWALYPGKKPKQTLPERTGYFLLLQHEDEVLLAQRPPSGLWGGLYCFPQFADEESLRQWLAQRQIAADNLTQLTAFRHTFSHFHLDIVPMWLPVSSFTGCMDEGNALWYNLAQPPSVGLAAPVERLLQQLRTGAPV`
(A) 4.02

(Q) Query (sequence): MKYDTSELCDIYQEDVNVVEPLFSNFGGRASFGGQIITVKCFEDNGLLYDLLEQNGRGRVLVVDGGGSVRRALVDAELARLAVQNEWEGLVIYGAVRQVDDLEELDIGIQAMAAIPVGAAGEGIGESDVRVNFGGVTFFSGDHLYADNTGIILSEDPLDIE [P0A8R0] ; field requested: total protein half-life in vivo
(A) 5.16

* * *

This section presents sequences with their documented total protein half-life in vivo values.
# ASSAY PROCEDURE: total protein half-life in vivo (active degradation + dilution); higher = more stable protein
# MEASUREMENT SETUP: E. coli NCM3722 delta-clpP delta-lon delta-hslV; growth: N-lim chemostat; doubling time 6 h
Reply numerically in h, unit not repeated.

Use the examples below as a reference point.
>  <POLYMER SEQUENCE>
MKHTVEVMIPEAEIKARIAELGRQITERYKDSGSDMVLVGLLRGSFMFMADLCREVQVSHEVDFMTASSYGSGMSTTRDVKILKDLDEDIRGKDVLIVEDIIDSGNTLSKVREILSLREPKSLAICTLLDKPSRREVNVPVEFIGFSIPDEFVVGYGIDYAQRYRHLPYIGKVILLDE [P0A9M2]

>  <RECORDED METRIC>
total protein half-life in vivo

>  <NUMERIC RESULT>
4.48

$$$$
>  <POLYMER SEQUENCE>
MTVETQLNPTQPVNQQIYRILRRDIVHCLIAPGTPLSEKEVSVRFNVSRQPVREAFIKLAENGLIQIRPQRGSYVNKISMAQVRNGSFIRQAIECAVARRAASMITESQCYQLEQNLHQQRIAIERKQLDDFFELDDNFHQLLTQIADCQLAWDTIENLKATVDRVRYMSFDHVSPPEMLLRQHLDIFSALQKRDGDAVERAMTQHLQEISESVRQIRQENSDWFSEE [P0ACM2]

>  <RECORDED METRIC>
total protein half-life in vivo

>  <NUMERIC RESULT>
6.15

$$$$

Please look at the following sequence next.
(Q) Which total protein half-life in vivo value belongs to MNIKGKALLAGCIALAFSNMALAEDIKVAVVGAMSGPVAQYGDQEFTGAEQAVADINAKGGIKGNKLQIVKYDDACDPKQAVAVANKVVNDGIKYVIGHLCSSSTQPASDIYEDEGILMITPAATAPELTARGYQLILRTTGLDSDQGPTAAKYILEKVKPQRIAIVHDKQQYGEGLARAVQDGLKKGNANVVFFDGITAGEKDFSTLVARLKKENIDFVYYGGYHPEMGQILRQARAAGLKTQFMGPEGVANVSLSNIAGESAEGLLVTKPKNYDQVPANKPIVDAIKAKKQDPSGAFVWTTYAALQSLQAGLNQSDDPAEIAKYLKANSVDTVMGPLTWDEKGDLKGFEFGVFDWHANGTATDAK [P0AD96] ?
(A) 6.22

* * *

total protein half-life in vivo values, listed per item
# ASSAY PROCEDURE: total protein half-life in vivo (active degradation + dilution); higher = more stable protein
# MEASUREMENT SETUP: wild type E. coli NCM3722; growth: N-lim chemostat; doubling time 6 h
Numeric only. Scale: h

(Q) Give the measured total protein half-life in vivo of MSKVCIIAWVYGRVQGVGFRYTTQYEAKRLGLTGYAKNLDDGSVEVVACGEEGQVEKLMQWLKSGGPRSARVERVLSEPHHPSGELTDFRIR [P0AB65] .
(A) 5.32

* * *

# ASSAY PROCEDURE: total protein half-life in vivo (active degradation + dilution); higher = more stable protein
# MEASUREMENT SETUP: E. coli NCM3722 delta-lon; growth: N-lim chemostat; doubling time 6 h
RECORDED METRIC: total protein half-life in vivo (h)
Expressed in h, but write only the number.

Consider the worked cases shown below.
>  <POLYMER SEQUENCE>
MKLFAQGTSLDLSHPHVMGILNVTPDSFSDGGTHNSLIDAVKHANLMINAGATIIDVGGESTRPGAAEVSVEEELQRVIPVVEAIAQRFEVWISVDTSKPEVIRESAKVGAHIINDIRSLSEPGALEAAAETGLPVCLMHMQGNPKTMQEAPKYDDVFAEVNRYFIEQIARCEQAGIAKEKLLLDPGFGFGKNLSHNYSLLARLAEFHHFNLPLLVGMSRKSMIGQLLNVGPSERLSGSLACAVIAAMQGAHIIRVHDVKETVEAMRVVEATLSAKENKRYE [P0AC13]

>  <UNITS LABEL>
h

>  <total protein half-life in vivo>
4.16

$$$$
>  <POLYMER SEQUENCE>
MNAEKSPVNHNVDHEEIAKFEAVASRWWDLEGEFKPLHRINPLRLGYIAERAGGLFGKKVLDVGCGGGILAESMAREGATVTGLDMGFEPLQVAKLHALESGIQVDYVQETVEEHAAKHAGQYDVVTCMEMLEHVPDPQSVVRACAQLVKPGGDVFFSTLNRNGKSWLMAVVGAEYILRMVPKGTHDVKKFIKPAELLGWVDQTSLKERHITGLHYNPITNTFKLGPGVDVNYMLHTQNK

>  <UNITS LABEL>
h

>  <total protein half-life in vivo>
4.02

$$$$
>  <POLYMER SEQUENCE>
MSAKHPVIAVTGSSGAGTTTTSLAFRKIFAQLNLHAAEVEGDSFHRYTRPEMDMAIRKARDAGRHISYFGPEANDFGLLEQTFIEYGQSGKGKSRKYLHTYDEAVPWNQVPGTFTPWQPLPEPTDVLFYEGLHGGVVTPQHNVAQHVDLLVGVVPIVNLEWIQKLIRDTSERGHSREAVMDSVVRSMEDYINYITPQFSRTHLNFQRVPTVDTSNPFAAKGIPSLDESFVVIHFRNLEGIDFPWLLAMLQGSFISHINTLVVPGGKMGLAMELIMLPLVQRLMEGKKIE [P0AEX5]

>  <UNITS LABEL>
h

>  <total protein half-life in vivo>
4.68

$$$$
>  <POLYMER SEQUENCE>
MRYRIFLLFFFALLPTSLVWAAPAQRAFSDWQVTCNNQNFCVARNTGDHNGLVMTLSRSAGAHTDAVLRIERGGLKSPEASEGEIAPRLLLDGEPLALSGDKWRISPWLLVTDDTATITAFLQMIQEGKAITLRDGDQTISLSGLKAALLFIDAQQKRVGSETAWIKKGDEPPLSVPPAPALKEVAVVNPTPTPLSLEERNDLLDYGNWRMNGLRCSLDPLRREVNVTALTDDKALMMISCEAGAYNTIDLAWIVSRKKPLASRPVRLRLPFNNGQETNELELMNATFDEKSRELVTLAKGRGLSDCGIQARWRFDGQRFRLVRYAAEPTCDNWHGPDAWPTLWITR

>  <UNITS LABEL>
h

>  <total protein half-life in vivo>
5.51

$$$$

// below: total protein half-life in vivo requested for another sequence
(Q) # query: total protein half-life in vivo of entry `MKQPGEELQETLTELDDRAVVDYLIKNPEFFIRNARAVEAIRVPHPVRGTVSLVEWHMARARNHIHVLEENMALLMEQAIANEGLFYRLLYLQRSLTAASSLDDMLMRFHRWARDLGLAGASLRLFPDRWRLGAPSNHTHLALSRQSFEPLRIQRLGQEQHYLGPLNGPELLVVLPEAKAVGSVAMSMLGSDADLGVVLFTSRDASHYQQGQGTQLLHEIALMLPELLERWIERV`
(A) 1.21
